target entity: Dopaminergic D1 (Homo sapiens, UniProt P21728)
Sequence (P21728 whole entry): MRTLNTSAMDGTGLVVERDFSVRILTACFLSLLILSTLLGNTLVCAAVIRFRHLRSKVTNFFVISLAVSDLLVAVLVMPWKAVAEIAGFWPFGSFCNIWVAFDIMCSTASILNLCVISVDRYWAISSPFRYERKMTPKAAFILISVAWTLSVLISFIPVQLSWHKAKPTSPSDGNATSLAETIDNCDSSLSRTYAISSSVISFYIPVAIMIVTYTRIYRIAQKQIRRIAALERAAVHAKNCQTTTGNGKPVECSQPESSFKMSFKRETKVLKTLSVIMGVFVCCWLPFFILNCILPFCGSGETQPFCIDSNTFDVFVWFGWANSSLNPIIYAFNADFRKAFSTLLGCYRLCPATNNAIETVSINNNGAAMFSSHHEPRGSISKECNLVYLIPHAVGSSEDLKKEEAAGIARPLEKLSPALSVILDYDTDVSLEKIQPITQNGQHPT
test name: competitive radioligand binding, Dopaminergic D1
conditions used: compound concentration of 1 μM; read-out: radio-labelled ligand displacement, Dopaminergic D1
Where a name gives a salt, the structure may show the parent alone.
Think of 4% as a floor: if inhibition at 1 µM stands on it or above, it is condition met; beneath it, condition not met.

- molecule: "Cc1cc2c3c(n(Cc4ccccc4)c2s1)CCN(C)C3.Cl [3.5(1)•HCl]"
  classification: "condition met"
- molecule: "Cc1cc2c(s1)c1c(n2CCc2ccccc2)CCN(C)C1.Cl [2.6(1)•HCl]"
  classification: "condition met"

In: Is it the case that Cc1cc2c3c(n(CCc4ccccc4)c2s1)CCN(C)C3.Cl [3.6(1)•HCl] has inhibition at 1 µM reaching or exceeding 4%?
Out: condition met

In: Does Cc1ccc(Cn2c3c(c4sc(Cl)cc42)C(C)N(C)C(C)C3)cn1 (centres unmarked) [2.5(4)•HCl] have a reported inhibition at 1 µM of at least 4%?
Out: condition not met
